target: human serotonin 5-HT6 receptor (Homo sapiens, UniProt P50406); construct: expressed in transfected cells; host or cells: HeLa/E6-7; assay: Radioligand binding assay, human 5-HT6 receptors ([3H]LSD); settings: human 5-HT6; Example 16 table; read-out: IC50 (nM) 5-HT6
Sequence (P50406 whole entry): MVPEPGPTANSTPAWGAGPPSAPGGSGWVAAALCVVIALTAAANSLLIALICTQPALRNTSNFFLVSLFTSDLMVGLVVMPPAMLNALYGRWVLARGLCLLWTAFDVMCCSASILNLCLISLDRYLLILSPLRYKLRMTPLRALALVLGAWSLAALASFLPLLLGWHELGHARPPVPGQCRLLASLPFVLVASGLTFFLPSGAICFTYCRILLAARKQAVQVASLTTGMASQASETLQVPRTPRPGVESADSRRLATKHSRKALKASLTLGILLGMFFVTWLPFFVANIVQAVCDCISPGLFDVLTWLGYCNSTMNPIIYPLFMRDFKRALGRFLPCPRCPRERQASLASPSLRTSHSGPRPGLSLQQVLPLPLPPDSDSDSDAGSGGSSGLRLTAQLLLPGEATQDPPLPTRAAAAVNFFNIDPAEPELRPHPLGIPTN
Entries annotated with measured IC50
measuredQuantity: IC50

INSERT INTO measurements (compound, measuredquantity, result) VALUES
  ('Clc1ccc(C2(c3csc(NCCN4CCCCC4)n3)CCC2)cc1', 'IC50', '> 1000 nM'),
  ('CN1CCN(c2nc(C3(c4ccc(Cl)cc4)CCCCC3)cs2)CC1', 'IC50', '< 1000 nM'),
  ('CN1CCN(c2nc(CCc3ccc(Cl)cc3)cs2)CC1', 'IC50', '> 1000 nM'),
  ('CN1CCN(c2nc(C3(c4ccccc4F)CCCCC3)cs2)CC1', 'IC50', '< 100 nM'),
  ('COc1ccc(C2(c3csc(N4CCN(C)CC4)n3)CCOCC2)cc1OC', 'IC50', '> 1000 nM'),
  ('COc1ccc(C2(c3csc(N4CCN(C)CC4)n3)CCOCC2)cc1', 'IC50', '< 1000 nM'),
  ('CN1CCC(c2nc(C3(c4ccc(Cl)cc4)CCC3)cs2)CC1', 'IC50', '< 1000 nM'),
  ('CC(C)N1CCN(c2nc(C3(c4ccc(Cl)cc4)CCCCC3)cs2)CC1', 'IC50', '> 1000 nM'),
  ('CN1CCN(c2nc(C3(c4ccc(Cl)cc4)CCC3)no2)CC1', 'IC50', '> 1000 nM'),
  ('Clc1cccc(C2(c3csc(C4CCNCC4)n3)CCOCC2)c1', 'IC50', '< 1000 nM'),
  ('CN1CCN(c2nc(C3(c4ccc(Cl)cc4)CCCC3)cs2)CC1', 'IC50', '< 100 nM'),
  ('CN1CCCC1CCNc1nc(C2(c3ccc(Cl)cc3)CCC2)cs1 (stereo not drawn)', 'IC50', '< 1000 nM'),
  ('CN1CCN(c2nc(C3(c4ccc(OC(F)(F)F)cc4)CCOCC3)cs2)CC1', 'IC50', '> 1000 nM'),
  ('CN1CCC(c2nc(C3(c4cccc(Cl)c4)CCOCC3)cs2)CC1', 'IC50', '< 1000 nM'),
  ('CN1CCN(c2nc(C3(c4ccc(C(F)(F)F)cc4)CCOCC3)cs2)CC1', 'IC50', '< 1000 nM'),
  ('CC(C)N1CCN(c2nc(C3(c4ccc(F)cc4)CCCCC3)cs2)CC1', 'IC50', '> 1000 nM'),
  ('Clc1ccc(C2(c3csc(NCCN4CCOCC4)n3)CCC2)cc1', 'IC50', '> 1000 nM'),
  ('Clc1ccc(C2(c3nc(N4CCNCC4)sc3Cl)CCOCC2)cc1', 'IC50', '< 1000 nM'),
  ('CN1CCN(c2nc(C3(c4cccc(Cl)c4)CCOCC3)cs2)CC1', 'IC50', '< 100 nM'),
  ('Clc1cccc(C2(c3csc(C4CCCNC4)n3)CCOCC2)c1 (stereo not drawn)', 'IC50', '< 1000 nM'),
  ('Clc1ccc(C2(c3csc(N4CCNCC4)n3)CCOCC2)cc1', 'IC50', '< 100 nM'),
  ('CN1CCN(c2nc(C3(c4ccccc4F)CCCC3)cs2)CC1', 'IC50', '< 100 nM'),
  ('Clc1ccc(C2(c3csc(C4CCNCC4)n3)CCC2)cc1', 'IC50', '< 1000 nM'),
  ('Clc1ccc(C2(c3csc(NCCCN4CCOCC4)n3)CCC2)cc1', 'IC50', '> 1000 nM');
